Each entry below carries its reported LD50.
Assay: in vivo
Conditions: mouse, ip
Form entry: enter the amount, then its unit.

Some entries whose results are on file:
{"compound": "CC(C(=O)[O-])c1cc(Cl)c(-n2cccn2)cc1Cl.[Na+] (centres unmarked)", "observed": "1050 mg/kg"}
{"compound": "O=C(O)Cc1ccc(-n2cc(Cl)cn2)cc1 [II]", "observed": "460 mg/kg"}

Input line: Can you share its LD50? I mean this compound: CC(C(=O)O)c1cc(Cl)c(-n2cc(Br)cn2)cc1Cl (centres unmarked) [VII]
Output line: 285 mg/kg

Input line: Can you share its LD50? I mean this compound: CC(C(=O)O)c1ccc(-n2cc(Br)cn2)c(Cl)c1 (centres unmarked) [V]
Output line: 325 mg/kg

Input line: Can you share its LD50? I mean this compound: O=C(O)Cc1ccc(-n2cc(Cl)cn2)c(Cl)c1 [IV]
Output line: 460 mg/kg

Input line: Can you share its LD50? I mean this compound: O=C(O)Cc1ccc(-n2cc(Br)cn2)cc1 [III, 4-(4-bromopyrazol-1-yl)phenylacetic acid]
Output line: 550 mg/kg

Input line: Can you share its LD50? I mean this compound: O=C(O)Cc1ccc(-n2cccn2)cc1 [VIII, 4-(pyrazol-1-yl)phenylacetic acid]
Output line: 1200 mg/kg

Input line: Can you share its LD50? I mean this compound: O=C(O)Cc1ccc(-c2cc(-c3ccccc3)n(-c3ccccc3)n2)cc1 [XII, reference compound]
Output line: 200 mg/kg

Input line: Can you share its LD50? I mean this compound: COc1ccc2c(c1)c(CC(=O)O)c(C)n2C(=O)c1ccc(Cl)cc1 [X, indomethacin, reference compound]
Output line: 45 mg/kg

Input line: Can you share its LD50? I mean this compound: Cn1nc(-c2ccc(CC(=O)O)cc2)cc1-c1ccccc1 [XI, reference compound]
Output line: 430 mg/kg

Input line: Can you share its LD50? I mean this compound: CC(C(=O)O)c1ccc(-n2cc(Cl)cn2)c(Cl)c1 (centres unmarked) [I]
Output line: 325 mg/kg

----------
Tested on: mouse
Conditions: Table 5, single i.p.
quantityMeasured: Toxicity after single intraperitoneal administration to the mouse LD50 (mg/kg i.p.)
All answers are understood in mg/kg i.p., so give the number only.

Some entries whose results are on file:
{"compound": "O=C(O)Cc1ccc(-n2cc(Br)cn2)cc1", "targetEntity": "mouse", "observed": 550}
{"compound": "O=C(O)Cc1ccc(-n2cc(Cl)cn2)c(Cl)c1", "targetEntity": "mouse", "observed": 460}
{"compound": "COc1ccc2c(c1)c(CC(=O)O)c(C)n2C(=O)c1ccc(Cl)cc1 [X, indomethacin, reference compound]", "targetEntity": "mouse", "observed": 45}

Below: the item to evaluate.
Input line: Missing value: Toxicity after single intraperitoneal administration to the mouse LD50, mouse, entry CC(C(=O)O)c1ccc(-n2cc(Cl)cn2)c(Cl)c1 (stereo not shown) . Fill in?
Output line: 325

----------
Each entry below carries its reported Therapeutic Quotient LD50/ED20.
Tested on: granulation tissue formation in the rat
Conditions: Table 3; LD50 mouse i.p. / ED20 rat oral
Write the number on its own, no unit after it.

Some entries whose results are on file:
{"molecule": "O=C(O)Cc1ccc(-n2cc(Cl)cn2)c(Cl)c1 [IV]", "quantityMeasured": "Therapeutic Quotient LD50/ED20", "observed": 23.0}
{"molecule": "COc1ccc2c(c1)c(CC(=O)O)c(C)n2C(=O)c1ccc(Cl)cc1 [X, indomethacin, reference compound]", "quantityMeasured": "Therapeutic Quotient LD50/ED20", "observed": 12.8}

Below: the item to evaluate.
Input line: Can you share its Therapeutic Quotient LD50/ED20? I mean this molecule: CC(C(=O)O)c1ccc(-n2cc(Cl)cn2)c(Cl)c1 (stereo not shown) [I]
Output line: 108.3
